assay: Cellular viability qHTS for adrenocortical cancer (ACC) cell line NCI-H295R (AID 1963990); details: CellTiter-Glo ATP luminescence, 48 h; series mostly up to 46.1 µM; further: nearly all actives have a fitted effect of over 60% in size
Records with an inconclusive call do not appear. The source made the active and inactive calls. The call rests on the fitted dose curve; in most records, active means well fitted cell-killing curve with a large enough effect; inconclusive means small, poorly fitted or top-dose-only effect; inactive means flat fitted curve, though single readings scatter.
Choose one outcome from this list and give only that: active, inactive

Q: GET /call?item= O=C(Nc1ccc2[nH]nc(-c3ccncc3)c2c1)[C@@H]1CCN(CC(=O)N2CCN(c3ccc(-c4ncccn4)cc3)CC2)C1 returns the recorded outcome of this test.
Ans: inactive

Q: Same lookup for Cc1c[nH]c2nc(Nc3ccc(N4CCN(C)CC4)c(F)c3)nc(-c3cccc(CC#N)c3)c12 , please.
Ans: active

Q: Same lookup for CC(C)[C@H](N)C(=O)OCCOCn1cnc2c(=O)[nH]c(N)nc21 , please.
Ans: inactive

Q: Same lookup for O=C(NOCC(O)CO)c1cc(Br)c(F)c(F)c1Nc1ccc(I)cc1F (stereo not given) , please.
Ans: active

Q: Same lookup for C[C@]12CCC(=O)C=C1CC[C@@H]1[C@@H]2CC[C@@]2(C)[C@H]1CC[C@]2(O)C(=O)CO , please.
Ans: inactive

Q: Same lookup for COc1ccc(OC)c(C(O)CNC(=O)CN)c1 (stereo not given) , please.
Ans: inactive

Q: Same lookup for COc1cc(OC)c(/C=C/S(=O)(=O)Cc2ccc(OC)c(OP(=O)(O)O)c2)c(OC)c1 , please.
Ans: active

Q: Same lookup for CCN(CC)CCOc1ccccc1C(=O)CCc1ccccc1 , please.
Ans: inactive

Q: Same lookup for O=C(NO)c1ccc(C2=Nc3ccccc3Oc3ccccc32)cc1 , please.
Ans: active

Q: Same lookup for Cc1c(F)cc(C(=O)NC2CC2)cc1-c1ccc(C(=O)NCC(C)(C)C)cn1 , please.
Ans: inactive
